Cited source: patent US20240285528A1

# key: entry, value: Aqueous solubility (dispersity)
assay: Aqueous solubility (dispersity) by HPLC after stirring and filtration; assay type: physicochemical; details: water, stirred at 25° C. for 10 hours, 0.2 micron filter

C=C1CCN([C@H](C)[C@](O)(Cn2cncn2)c2ccc(F)cc2F)CC1 [Epinaconazole, epinaconazole] | 0.321 % (wt/v)
CC(=O)Oc1cc2c(cc1Cl)C(c1ccccc1C(=O)O)c1cc(Cl)c(OC(C)=O)cc1O2 [DCF-DA, 2′, 7′-dichlorofluorescin diacetate] | 0.004 % (wt/v)
O=C(Nc1ccc([N+](=O)[O-])cc1Cl)c1cc(Cl)ccc1O [Niclosamide, niclosamide] | 0.0033 % (wt/v)
C=CC[C@@H]1/C=C(\C)C[C@H](C)C[C@H](OC)[C@H]2O[C@@](O)(C(=O)C(=O)N3CCCC[C@H]3C(=O)O[C@H](/C(C)=C/[C@@H]3CC[C@@H](O)[C@H](OC)C3)[C@H](C)[C@@H](O)CC1=O)[C@H](C)C[C@@H]2OC | 7.6 % (wt/v)

Let us examine a further case.
Qu. Which Aqueous solubility (dispersity) reading was recorded for the compound Nc1ncnc2c1ncn2[C@@H]1O[C@H](CO)[C@@H](O)[C@H]1O ?
Ans. 0.27 % (wt/v)
